For each record, write down the corresponding SPOT peptide array binding signal intensity.
target: AgRvs167; experiment: SPOT peptide array binding signal intensity (averaged, normalized) (arbitrary units (background-subtracted, floor 0; scale differs between SH3 domains)); higher = stronger binding of the SH3 domain to the peptide
Keep the answer to the number alone.

Look up SPOT peptide array binding signal intensity: `LKQRFFLMFPKSIIW` 3.67

Give its SPOT peptide array binding signal intensity value. Item: `ISNFVPPNLPMRRFK` 256

Value lookup for SPOT peptide array binding signal intensity; key = `NRARYLPQNPDIIAG` 0.5
